subject of test: human TLR8 (Homo sapiens (Human), UniProt Q9NR97)
Sequence (Q9NR97 27-1041): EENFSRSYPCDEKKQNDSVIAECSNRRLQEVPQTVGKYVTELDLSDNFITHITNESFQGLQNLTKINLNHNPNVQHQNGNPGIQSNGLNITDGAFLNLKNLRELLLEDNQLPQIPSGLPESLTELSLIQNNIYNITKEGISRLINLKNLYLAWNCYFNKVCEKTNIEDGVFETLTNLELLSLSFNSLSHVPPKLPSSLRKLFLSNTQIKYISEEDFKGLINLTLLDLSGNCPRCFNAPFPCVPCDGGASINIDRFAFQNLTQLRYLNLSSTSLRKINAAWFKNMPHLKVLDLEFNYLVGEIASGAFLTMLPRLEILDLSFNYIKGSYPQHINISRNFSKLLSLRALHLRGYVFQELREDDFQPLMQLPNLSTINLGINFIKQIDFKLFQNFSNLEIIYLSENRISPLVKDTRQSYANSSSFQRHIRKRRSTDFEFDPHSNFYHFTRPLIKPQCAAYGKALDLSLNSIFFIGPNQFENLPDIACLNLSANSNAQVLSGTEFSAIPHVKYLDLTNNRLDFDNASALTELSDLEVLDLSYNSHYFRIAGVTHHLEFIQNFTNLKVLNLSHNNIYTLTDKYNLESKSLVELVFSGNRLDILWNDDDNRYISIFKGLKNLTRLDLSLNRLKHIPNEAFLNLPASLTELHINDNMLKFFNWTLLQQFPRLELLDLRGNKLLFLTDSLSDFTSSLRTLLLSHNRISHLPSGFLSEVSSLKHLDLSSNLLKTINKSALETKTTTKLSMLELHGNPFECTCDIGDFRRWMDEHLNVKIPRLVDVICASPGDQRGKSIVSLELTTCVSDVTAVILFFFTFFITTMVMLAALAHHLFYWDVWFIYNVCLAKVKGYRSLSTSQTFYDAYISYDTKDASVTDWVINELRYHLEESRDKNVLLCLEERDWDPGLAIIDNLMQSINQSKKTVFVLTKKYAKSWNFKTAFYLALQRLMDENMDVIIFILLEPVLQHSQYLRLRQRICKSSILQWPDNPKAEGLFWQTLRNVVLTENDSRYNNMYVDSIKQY
assay overview: TLR8 inhibition reporter assay (HEK-Blue SEAP);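 also: SEAP driven by IFN-β minimal promoter with five NF-κB and AP-1 sites, compounds tested 0.05 nM to 50 µM, 22 h incubation, inhibition relative to agonist plus DMSO wells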
measurement conditions: read-out: TLR8 IC50; HEK-Blue cells overexpressing human TLR8, R848 15.9 μM stimulation, SEAP reporter
metric name: log10(IC50) (log10 of the value in nM)
// do not treat as linear: log10 of IC50, unit nM

Cc1c(-c2[nH]c3cnc(N4CC5(C4)CN(C(C)C)C5)c(F)c3c2C(C)C)cn2ncnc2c1C [Example 403] : 0.23

Inquiry: Sample COc1cc(-c2[nH]c3cnc(N4CCN(CC(=O)N(C)C)CC4)cc3c2C(C)C)cn2ncnc12 [Example 300] — what was its log10(IC50)?
Reply text: 0.20

Inquiry: Consider next the compound COc1cc(-c2[nH]c3cnc(C4CCC(N5CC6(COC6)C5)C4)cc3c2C(C)C)cn2ncnc12 (stereo not drawn) [Example 118] in the same way.
Reply text: 0.15

Inquiry: Cc1c(-c2[nH]c3cnc(C4CCN(CC(N)=O)CC4)cc3c2C(C)C)cn2ncnc2c1C [Example 23] , same question.
Reply text: 0.53

Inquiry: Proceed to CNC(=O)CN(C)C1CCC(c2ncc3[nH]c(-c4cc(OC)c5ncnn5c4)c(C(C)C)c3c2F)CC1 (stereo not drawn) [Example 131]
Reply text: 0.90

Inquiry: And COC(C)(C)CNC1CCN(c2ncc3[nH]c(-c4cn5ncnc5c(C)c4C)c(C(C)C)c3c2C)CC1 [Example 173] ?
Reply text: -0.27

Inquiry: Also, Cc1c(-c2[nH]c3cnc(C4CCC(N5CC6(COC6)C5)CC4)c(C)c3c2C(C)C)cn2ncnc2c1C (stereo not drawn) [Example 142] please.
Reply text: 1.59

Inquiry: What do we get for Cc1c(-c2[nH]c3cnc(C4CCC(NCC(C)(C)O)CC4)c(C)c3c2C(C)C)cn2ncnc2c1C (stereo not drawn) [Example 92] ?
Reply text: 1.51

Inquiry: Next up: COc1cc(-c2[nH]c3cnc(C4CCC(N5CC6(COC6)C5)C4)cc3c2C(C)C)cn2ncnc12 (stereo not drawn) [Example 208]
Reply text: 1.20

Inquiry: Next compound: Cc1c(N2CCC(NC3CCOCC3)CC2)ncc2[nH]c(-c3cc(C)c4ncnn4c3)c(C(C)C)c12 [Example 265]
Reply text: -0.38

Inquiry: Here is the next compound: CC(=O)N1CCN(c2ncc3[nH]c(-c4cn5ncnc5c(C)c4C)c(C(C)C)c3c2F)CC1 [Example 427]
Reply text: 1.57

Inquiry: What do you have for COc1cc(-c2[nH]c3cnc(C4CCC(NCC(C)(C)C)CC4)cc3c2C(C)C)cn2ncnc12 (stereo not drawn) [Example 325] ?
Reply text: 1.08

###

subject of test: UniProt Q9NYK1
Sequence (Q9NYK1 27-1049): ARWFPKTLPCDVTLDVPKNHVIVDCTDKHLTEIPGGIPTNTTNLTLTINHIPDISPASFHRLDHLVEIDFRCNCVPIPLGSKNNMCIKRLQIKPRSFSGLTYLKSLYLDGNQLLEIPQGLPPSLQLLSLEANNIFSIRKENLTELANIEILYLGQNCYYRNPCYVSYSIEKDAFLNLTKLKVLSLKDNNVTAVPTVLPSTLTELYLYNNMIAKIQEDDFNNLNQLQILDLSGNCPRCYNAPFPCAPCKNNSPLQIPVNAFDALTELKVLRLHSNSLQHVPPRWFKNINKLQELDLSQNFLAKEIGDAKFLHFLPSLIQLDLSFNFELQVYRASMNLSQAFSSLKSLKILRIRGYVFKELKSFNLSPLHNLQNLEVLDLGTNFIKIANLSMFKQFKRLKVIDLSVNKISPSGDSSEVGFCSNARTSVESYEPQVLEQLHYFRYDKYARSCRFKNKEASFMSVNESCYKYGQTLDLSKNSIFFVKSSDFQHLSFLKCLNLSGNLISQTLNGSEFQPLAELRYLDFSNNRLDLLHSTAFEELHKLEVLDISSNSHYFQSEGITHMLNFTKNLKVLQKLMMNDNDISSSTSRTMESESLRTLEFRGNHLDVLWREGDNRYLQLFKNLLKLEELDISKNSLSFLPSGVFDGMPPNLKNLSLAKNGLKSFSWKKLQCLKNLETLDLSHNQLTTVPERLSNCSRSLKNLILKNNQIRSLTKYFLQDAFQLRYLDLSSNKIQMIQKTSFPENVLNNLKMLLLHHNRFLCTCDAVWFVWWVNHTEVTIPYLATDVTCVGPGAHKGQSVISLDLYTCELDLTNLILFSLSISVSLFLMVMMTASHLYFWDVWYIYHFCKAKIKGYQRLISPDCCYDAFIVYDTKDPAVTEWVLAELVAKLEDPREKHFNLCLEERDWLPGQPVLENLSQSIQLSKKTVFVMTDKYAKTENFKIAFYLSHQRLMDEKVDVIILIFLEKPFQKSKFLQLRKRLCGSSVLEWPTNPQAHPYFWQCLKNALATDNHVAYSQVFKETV
assay overview: TLR7 inhibition reporter assay (HEK-Blue SEAP)
measurement conditions: HEK-Blue cells overexpressing human TLR7, gardiquimod 7.5 μM stimulation
metric name: IC50 (nM)
Write down the numeric answer in nM and omit the unit.

CNC(=O)CN1CCN(c2ncc3[nH]c(-c4cc(OC)c5ncnn5c4)c(C(C)C)c3c2F)CC1 : 2.5
CNC(=O)CN1CC2(C1)CN(c1ncc3[nH]c(-c4cc(OC)c5ncnn5c4)c(C(C)C)c3c1F)C2 : 15
Cc1cc(-c2[nH]c3cnc(N4CCC(N(C)CC(C)(C)C)CC4)c(F)c3c2C(C)C)cn2ncnc12 : 3
COc1cc(-c2[nH]c3cnc(C4CCC(NC5CCOCC5)CC4)c(C)c3c2C(C)C)cn2ncnc12 (stereo not shown) [Example 176] : 16
Cc1cc(-c2[nH]c3cnc(C4CCN(C(C)C)CC4)c(F)c3c2C(C)C)cc(C)n1 : 2.5
CNCC(=O)N1CCN(c2ncc3[nH]c(-c4cc(OC)c5ncnn5c4)c(C(C)C)c3c2C)CC1 : 4.7

From here, focus on the item given below.
Inquiry: Notebook: pull reported IC50 for UniProt Q9NYK1, entry COCCN1CCC(c2ncc3[nH]c(-c4cc(C)c5ncnn5c4)c(C(C)C)c3c2F)CC1
Reply text: 1.8

Each recorded value in this set is attributed to patent US11912703B2.
